target: UniProt:P04150; assay: HepG2 TAT assay: inhibition of dexamethasone-induced tyrosine aminotransferase (TAT) activity; settings: HepG2 cells, challenge of 100 nM dexamethasone, 18-24 hr; IC50 converted to Ki by Cheng and Prusoff equation
measure: pKi
Answers are plain numbers, as −log10 of the molar value.

Below are some molecules; for each one, tell me its pKi.
1. Cc1cc2c(cnn2-c2ccc(F)cc2)cc1[C@@]12CN(C(=O)c3cccc(C#N)c3)C[C@@H]1[C@H]2c1ccccc1 (stereo in doubt)
2. Cc1cc2c(cnn2-c2ccc(F)cc2)cc1[C@@]12CN(S(=O)(=O)c3ccn(C)n3)C[C@@H]1[C@H]2c1ccccc1 (single isomer, unassigned)

7.59
8.03

Below are some molecules; for each one, tell me its pKi.
1. Cc1cnc(C(=O)N2C[C@@H]3[C@@H](c4ccccc4)[C@]3(c3cc4cnn(-c5ccc(F)cc5)c4cc3C)C2)s1 (stereo in doubt)
2. Cc1cc2c(cnn2-c2ccc(F)cc2)cc1[C@]12CN(S(=O)(=O)c3cncc(F)c3)C[C@H]1[C@@H]2c1ccccc1
3. Cc1cc2c(cnn2-c2ccc(F)cc2)cc1[C@@]12CN(C(=O)c3cnn(C)n3)C[C@@H]1[C@H]2c1ccccc1 (single isomer, unassigned)
4. COCCOC(=O)N1C[C@@H]2[C@@H](c3ccccc3)[C@]2(c2cc3cnn(-c4ccc(F)cc4)c3cc2C)C1 (single isomer, unassigned)

7.35
7.60
7.72
7.57

* * *

molecular target: glucocorticoid receptor (Homo sapiens (Human), UniProt P04150); test: HepG2 TAT assay: inhibition of dexamethasone-induced tyrosine aminotransferase (TAT) activity; conditions: HepG2 cells, challenge of 100 nM dexamethasone, 18-24 hr; IC50 converted to Ki by Cheng and Prusoff equation
Sequence (P04150 whole entry): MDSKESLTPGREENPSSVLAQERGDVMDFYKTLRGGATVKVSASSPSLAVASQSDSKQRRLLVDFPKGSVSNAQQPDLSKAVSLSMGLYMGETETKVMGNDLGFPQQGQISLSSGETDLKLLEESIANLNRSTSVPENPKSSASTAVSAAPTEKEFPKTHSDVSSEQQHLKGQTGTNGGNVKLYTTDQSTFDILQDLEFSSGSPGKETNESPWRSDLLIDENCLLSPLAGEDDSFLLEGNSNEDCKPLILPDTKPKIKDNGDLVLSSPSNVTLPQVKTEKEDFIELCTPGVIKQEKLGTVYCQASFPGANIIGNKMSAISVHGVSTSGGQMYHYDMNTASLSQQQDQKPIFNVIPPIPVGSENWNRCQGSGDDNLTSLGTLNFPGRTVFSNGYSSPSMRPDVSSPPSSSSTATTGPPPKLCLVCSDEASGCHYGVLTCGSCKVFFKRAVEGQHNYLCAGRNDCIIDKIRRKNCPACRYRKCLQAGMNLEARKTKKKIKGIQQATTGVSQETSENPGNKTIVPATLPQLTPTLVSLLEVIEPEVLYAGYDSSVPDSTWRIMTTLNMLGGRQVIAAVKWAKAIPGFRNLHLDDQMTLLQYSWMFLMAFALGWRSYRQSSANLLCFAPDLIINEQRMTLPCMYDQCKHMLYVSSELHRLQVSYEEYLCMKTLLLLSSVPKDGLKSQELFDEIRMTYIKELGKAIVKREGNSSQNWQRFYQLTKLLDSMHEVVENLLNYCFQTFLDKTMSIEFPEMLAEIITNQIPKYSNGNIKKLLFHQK
Ki less than 0.04 µM is class 1; Ki greater than or equal to 0.04 µM is class 0.

Please review the entries below; each comes with its answer.
# molecule, system.tested, group
data = [
    ("Cc1cc2c(cnn2-c2ccc(F)cc2)cc1[C@@]12CN(S(=O)(=O)C3CCC3)C[C@@H]1[C@H]2c1ccccc1 (stereo in doubt) [Example 139]", "glucocorticoid receptor (Homo sapiens (Human), UniProt P04150)", "class 0"),
    ("Cc1cc2c(cnn2-c2ccc(F)cc2)cc1[C@@]12CN(c3ncccn3)C[C@@H]1[C@H]2c1ccccc1 (stereo in doubt) [Example 185]", "glucocorticoid receptor (Homo sapiens (Human), UniProt P04150)", "class 0"),
    ("Cc1cc2c(cnn2-c2ccc(F)cc2)cc1[C@@]12CN(C(=O)c3cc(C)n(C)n3)C[C@@H]1[C@H]2c1ccccc1 (stereo in doubt) [Example 177]", "glucocorticoid receptor (Homo sapiens (Human), UniProt P04150)", "class 1"),
    ("Cc1cc2c(cnn2-c2ccc(F)cc2)cc1[C@@]12CN(C(=O)N3CCOCC3)C[C@@H]1[C@H]2c1ccccc1 (stereo in doubt) [Example 121]", "glucocorticoid receptor (Homo sapiens (Human), UniProt P04150)", "class 0"),
    ("Cc1cc2c(cnn2-c2ccc(F)cc2)cc1[C@@]12CN(S(=O)(=O)c3cnn(C)n3)C[C@@H]1[C@H]2C(=O)NCC(C)C [Example 66]", "glucocorticoid receptor (Homo sapiens (Human), UniProt P04150)", "class 0"),
]

Next up:
Just wondering, is Ki of CC(=O)NC[C@@H]1[C@H]2CN(S(=O)(=O)c3cnn(C)n3)C[C@@]12c1cc2cnn(-c3ccc(F)cc3)c2cc1C (racemic) [Example 135] below 0.04 µM?
class 0

* * *

molecular target: glucocorticoid receptor (Homo sapiens (Human), UniProt P04150); assay: HepG2 TAT assay: inhibition of dexamethasone-induced tyrosine aminotransferase (TAT) activity; conditions: HepG2 cells, challenge of 100 nM dexamethasone, 18-24 hr; IC50 converted to Ki by Cheng and Prusoff equation
pKi: −log10 of the molar value.
If the reported pKi equals or exceeds 7, assign MET. If not, assign NOT MET.

# molecule, system.tested, group
measured = [
    ("CO[C@@]1(c2ccccc2)C[C@H]2CN(S(=O)(=O)c3cnn(C)c3)C[C@@]2(c2cc3cnn(-c4ccc(F)cc4)c3cc2C)C1", "glucocorticoid receptor (Homo sapiens (Human), UniProt P04150)", "MET"),
    ("Cc1cc2c(cnn2-c2ccc(F)cc2)cc1[C@@]12CN(C(=O)c3cccc(F)c3)C[C@@H]1[C@H]2c1ccccc1 (stereo in doubt)", "glucocorticoid receptor (Homo sapiens (Human), UniProt P04150)", "MET"),
    ("Cc1cc2c(cnn2-c2ccc(F)cc2)cc1[C@@]12CN(C(=O)C(C)C)C[C@@H]1[C@H]2c1ccccc1 (single isomer, unassigned)", "glucocorticoid receptor (Homo sapiens (Human), UniProt P04150)", "MET"),
]

Next up:
Given Cc1cc2c(cnn2-c2ccc(F)cc2)cc1[C@@]12CN(C(=O)c3ncccc3C#N)C[C@@H]1[C@H]2c1ccccc1 (single isomer, unassigned) , state whether its pKi is at least 7.
MET

* * *

biological target: UniProtKB P04150; assay: HepG2 TAT assay: inhibition of dexamethasone-induced tyrosine aminotransferase (TAT) activity; conditions: HepG2 cells, challenge of 100 nM dexamethasone, 18-24 hr; IC50 converted to Ki by Cheng and Prusoff equation
measure: pKi
One number for each entry, as −log10 of the molar value.

# molecule, pKi
measured = [
    ("CCCn1cc(S(=O)(=O)N2C[C@@H]3[C@@H](c4ccccc4)[C@]3(c3cc4cnn(-c5ccc(F)cc5)c4cc3C)C2)cn1 (single isomer, unassigned)", 7.62),
    ("Cc1cc2c(cnn2-c2ccc(F)cc2)cc1[C@@]12CN(C(=O)c3cnn(C)c3)C[C@@H]1[C@H]2c1ccccc1 (single isomer, unassigned)", 7.43),
]

The record that follows has no pKi shown yet.
Please report the recorded pKi for Cc1cc2c(cnn2-c2ccc(F)cc2)cc1C12CN(S(=O)(=O)c3cnn(C)n3)CC1C2COc1ccccn1 (stereo not drawn) .
6.17

* * *

Hi there, I'd appreciate the recorded Ki for every entry that follows.
molecular target: glucocorticoid receptor (Homo sapiens (Human), UniProt P04150); assay: HepG2 TAT assay: inhibition of dexamethasone-induced tyrosine aminotransferase (TAT) activity; details: HepG2 cells, challenge of 100 nM dexamethasone, 18-24 hr; IC50 converted to Ki by Cheng and Prusoff equation
Give bare numbers, in nM.

Example molecules with recorded Ki:
# molecule, recorded.value
data = [
    ("Cc1cc2c(cnn2-c2ccc(F)cc2)cc1[C@@]12CN(C(=O)c3ccccc3)C[C@@H]1[C@@]2(C)c1ccccc1 (stereo in doubt)", 37),
    ("Cc1cc2c(cnn2-c2ccc(F)cc2)cc1C12CC(Oc3ccccc3)CC1CN(C(=O)c1ccccc1)C2 (stereo not drawn)", 190),
    ("Cc1cc2c(cnn2-c2ccc(F)cc2)cc1[C@@]12CN(S(=O)(=O)c3cnn(C)n3)C[C@@H]1[C@H]2COC(C)C (stereo in doubt)", 290),
    ("Cc1cc2c(cnn2-c2ccc(F)cc2)cc1[C@@]12CN(C(=O)c3ccc(F)cn3)C[C@@H]1[C@H]2c1ccccc1 (single isomer, unassigned)", 20),
]

Below are some molecules; for each one, tell me its Ki.
1. Cc1cc2c(cnn2-c2ccc(F)cc2)cc1C12CN(S(=O)(=O)c3cnn(C)c3)CC1CC(O)(c1nccs1)C2 (stereo not drawn)
2. CO[C@@]1(c2ccccc2)C[C@@H]2CN(S(=O)(=O)c3cnn(C)c3)C[C@]2(c2cc3cnn(-c4ccc(F)cc4)c3cc2C)C1

490
350

Below are some molecules; for each one, tell me its Ki.
1. Cc1cc2c(cnn2-c2ccc(F)cc2)cc1[C@@]12CN(C(=O)c3ccnn3C)C[C@@H]1[C@H]2c1ccccc1 (stereo in doubt)
2. Cc1cc2c(cnn2-c2ccc(F)cc2)cc1[C@@]12CN(C(=O)OC3CCOCC3)C[C@@H]1[C@H]2c1ccccc1 (single isomer, unassigned)
3. Cc1cc2c(cnn2-c2ccc(F)cc2)cc1[C@@]12CN(C(=O)C3CCOCC3)C[C@@H]1[C@H]2c1ccccc1 (stereo in doubt)
4. Cc1cc2c(cnn2-c2ccc(F)cc2)cc1[C@@]12CN(S(C)(=O)=O)C[C@@H]1[C@H]2C(=O)Nc1ccc(F)cn1
5. Cc1cc2c(cnn2-c2ccc(F)cc2)cc1[C@@]12CN(C(=O)c3ccccc3S(C)(=O)=O)C[C@@H]1[C@H]2c1ccccc1 (stereo in doubt)
6. Cc1cc2c(cnn2-c2ccc(F)cc2)cc1[C@@]12CN(S(=O)(=O)CC(C)C)C[C@@H]1[C@H]2c1ccccc1
7. COC1(c2cccc(C)c2)CC2CN(S(=O)(=O)c3cnn(C)c3)CC2(c2cc3cnn(-c4ccc(F)cc4)c3cc2C)C1 (stereo not drawn)

[61, 29, 70, 84, 24, 30, 110]

Below are some molecules; for each one, tell me its Ki.
1. Cc1cc2c(cnn2-c2ccc(F)cc2)cc1C12CN(S(=O)(=O)c3cnn(C)n3)CC1C2CO (stereo not drawn)
2. Cc1cc2c(cnn2-c2ccc(F)cc2)cc1[C@@]12CN(S(=O)(=O)c3cnn(C)n3)C[C@@H]1[C@H]2COc1ccccc1 (stereo in doubt)
3. Cc1cc2c(cnn2-c2ccc(F)cc2)cc1C12CN(S(=O)(=O)c3cnn(C)n3)CC1C2COc1ccc(Cl)cc1 (single isomer, unassigned) [Example 52]
4. Cc1cc2c(cnn2-c2ccc(F)cc2)cc1C12CC(Oc3ccccc3)CC1CN(S(C)(=O)=O)C2 (stereo not drawn) [Example 37]
5. Cc1cc2c(cnn2-c2ccc(F)cc2)cc1[C@@]12CN(Cc3ccccn3)C[C@@H]1[C@H]2c1ccccc1 (stereo in doubt)
6. Cc1cc2c(cnn2-c2ccc(F)cc2)cc1[C@@]12CN(S(=O)(=O)c3cnn(C)n3)C[C@@H]1[C@H]2c1ccccc1 [Example 70]

1: 270; 2: 120; 3: 380; 4: 170; 5: 48; 6: 24

Below are some molecules; for each one, tell me its Ki.
1. Cc1cc2c(cnn2-c2ccc(F)cc2)cc1[C@@]12CN(S(=O)(=O)c3cnn(C)n3)C[C@@H]1[C@H]2c1ccccc1 [Example 71]
2. Cc1cc2c(cnn2-c2ccc(F)cc2)cc1[C@@]12CN(C(=O)c3ncccc3C)C[C@@H]1[C@H]2c1ccccc1 (stereo in doubt)

[15, 29]

Below are some molecules; for each one, tell me its Ki.
1. Cc1cc2c(cnn2-c2ccc(F)cc2)cc1[C@@]12CN(C(=O)c3ccc(C#N)cn3)C[C@@H]1[C@H]2c1ccccc1 (single isomer, unassigned)
2. Cc1cc2c(cnn2-c2ccc(F)cc2)cc1[C@@]12CN(C(=O)c3ccc(C#N)cc3)C[C@@H]1[C@H]2c1ccccc1 (stereo in doubt)
3. COc1cccc(C(=O)N2C[C@@H]3[C@@H](c4ccccc4)[C@]3(c3cc4cnn(-c5ccc(F)cc5)c4cc3C)C2)c1 (single isomer, unassigned)

1: 19; 2: 36; 3: 19
